Molecular target: Bcl-2-related protein A1 (Homo sapiens)
Assay: Covalent binding affinity to human Bcl2A1 assessed as Kinact/Ki ratio by FBid based FP assay
Positions of bridges follow the written chain, without caps; N, C: chain ends. Non-standard residues stand in square brackets, D forms with d. Residues, ends and D or L forms follow the SMILES beside them. ξ: configuration not given here. *: point of attachment. S5 = C=CCCC[C@](C)(N)C(=O)O; Acryloyl = C=CC(=O)*; ξDap = NCC(N)C(=O)O
Each entry below lists one item and its recorded Ratio value.
reported metric: Ratio (mM⁻¹ s⁻¹)

1) C=CC(=O)NCC1NC(=O)[C@@H](NC(C)=O)CCCCNC(=O)C[C@@H](C(=O)N[C@@H](CCC(=O)O)C(=O)N[C@@H](CC(C)C)C(=O)N[C@@H](CCCNC(=N)N)C(=O)N[C@@]2(C)CCC/C=C/CCC[C@@](C)(C(=O)N[C@@H](Cc3ccccc3)C(N)=O)NC(=O)[C@H](CC(=O)O)NC(=O)CNC(=O)[C@H]([C@@H](C)CC)NC2=O)NC(=O)[C@H](C)NC(=O)[C@H]([C@@H](C)CC)NC1=O (stereo partly drawn) (Ac-K[ξDap](Acryloyl)IADELR[S5]IGD[S5]F-NH2; lactam 1-5; staple (E) 9-13); 54
2) C=CC(=O)NCC1NC(=O)[C@@](C)(NC(C)=O)CCC/C=C/CCC[C@@](C)(C(=O)N[C@@H](CCC(=O)O)C(=O)N[C@@H](CC(C)C)C(=O)N[C@@H](CCCNC(=N)N)C(=O)N[C@H]2CCCCNC(=O)C[C@@H](C(=O)N[C@@H](Cc3ccccc3)C(N)=O)NC(=O)[C@H](CC(=O)O)NC(=O)CNC(=O)[C@H]([C@@H](C)CC)NC2=O)NC(=O)[C@H](C)NC(=O)[C@H]([C@@H](C)CC)NC1=O (stereo partly drawn) (Ac-[S5][ξDap](Acryloyl)IA[S5]ELRKIGDDF-NH2; staple (E) 1-5; lactam 9-13); 399
3) C=CC(=O)NCC1NC(=O)[C@@H](NC(C)=O)CCCCNC(=O)C[C@@H](C(=O)N[C@@H](CCC(=O)O)C(=O)N[C@@H](CC(C)C)C(=O)N[C@@H](CCCNC(=N)N)C(=O)N[C@H]2CCCCNC(=O)C[C@@H](C(=O)N[C@@H](Cc3ccccc3)C(N)=O)NC(=O)[C@H](CC(=O)O)NC(=O)CNC(=O)[C@H]([C@@H](C)CC)NC2=O)NC(=O)[C@H](C)NC(=O)[C@H]([C@@H](C)CC)NC1=O (stereo partly drawn) (Ac-K[ξDap](Acryloyl)IADELRKIGDDF-NH2; lactam 1-5, 9-13); 118

====

Biological target: UniProtKB Q16548
Sequence (whole entry): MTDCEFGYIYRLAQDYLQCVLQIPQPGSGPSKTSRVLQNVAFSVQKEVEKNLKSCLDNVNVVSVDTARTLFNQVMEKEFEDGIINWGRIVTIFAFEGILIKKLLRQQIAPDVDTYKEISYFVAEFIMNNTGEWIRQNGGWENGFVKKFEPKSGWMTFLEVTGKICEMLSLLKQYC
Test: Covalent binding affinity to human Bcl2A1 assessed as Kinact/Ki ratio by FBid based FP assay
Positions of bridges follow the written chain, without caps; N, C: chain ends. Non-standard residues stand in square brackets, D forms with d. Residues, ends and D or L forms follow the SMILES beside them. ξ: configuration not given here. *: point of attachment. S5 = C=CCCC[C@](C)(N)C(=O)O; Acryloyl = C=CC(=O)*; ξDap = NCC(N)C(=O)O
reported metric: Ratio (mM⁻¹ s⁻¹)

1) C=CC(=O)NCC(NC(=O)[C@@H](NC(C)=O)[C@@H](C)CC)C(=O)N[C@H](C(=O)N[C@@H](C)C(=O)N[C@@H](CCC(N)=O)C(=O)N[C@@H](CCC(=O)O)C(=O)N[C@@H](CC(C)C)C(=O)N[C@@H](CCCNC(=N)N)C(=O)N[C@@]1(C)CCC/C=C/CCC[C@@](C)(C(=O)N[C@@H](Cc2ccccc2)C(N)=O)NC(=O)[C@H](CC(=O)O)NC(=O)CNC(=O)[C@H]([C@@H](C)CC)NC1=O)[C@@H](C)CC (stereo partly specified) (Ac-I[ξDap](Acryloyl)IAQELR[S5]IGD[S5]F-NH2; staple (E) 9-13); 9

====

Each entry below lists one item and its recorded Ki value.
Biological target: Bcl-2-related protein A1 (Homo sapiens)
Sequence (Q16548 whole entry): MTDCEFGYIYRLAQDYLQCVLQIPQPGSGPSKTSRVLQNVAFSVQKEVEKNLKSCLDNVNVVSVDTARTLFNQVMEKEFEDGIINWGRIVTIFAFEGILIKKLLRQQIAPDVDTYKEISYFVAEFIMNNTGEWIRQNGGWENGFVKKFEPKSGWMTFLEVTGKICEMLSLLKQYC
Experiment: Covalent binding affinity to human Bcl2A1 by FBid based FP assay
Positions of bridges follow the written chain, without caps; N, C: chain ends. Non-standard residues stand in square brackets, D forms with d. Residues, ends and D or L forms follow the SMILES beside them. ξ: configuration not given here. *: point of attachment. S5 = C=CCCC[C@](C)(N)C(=O)O; Acryloyl = C=CC(=O)*; ξDap = NCC(N)C(=O)O
reported metric: Ki (nM)

1. C=CC(=O)NCC1NC(=O)[C@@](C)(NC(C)=O)CCC/C=C/CCC[C@@](C)(C(=O)N[C@@H](CCC(=O)O)C(=O)N[C@@H](CC(C)C)C(=O)N[C@@H](CCCNC(=N)N)C(=O)N[C@H]2CCCCNC(=O)C[C@@H](C(=O)N[C@@H](Cc3ccccc3)C(N)=O)NC(=O)[C@H](CC(=O)O)NC(=O)CNC(=O)[C@H]([C@@H](C)CC)NC2=O)NC(=O)[C@H](C)NC(=O)[C@H]([C@@H](C)CC)NC1=O (stereo not given in full) (Ac-[S5][ξDap](Acryloyl)IA[S5]ELRKIGDDF-NH2; staple (E) 1-5; lactam 9-13); 10
2. C=CC(=O)NCC(NC(=O)[C@@H](NC(C)=O)[C@@H](C)CC)C(=O)N[C@H](C(=O)N[C@@H](C)C(=O)N[C@@H](CCC(N)=O)C(=O)N[C@@H](CCC(=O)O)C(=O)N[C@@H](CC(C)C)C(=O)N[C@@H](CCCNC(=N)N)C(=O)N[C@@]1(C)CCC/C=C/CCC[C@@](C)(C(=O)N[C@@H](Cc2ccccc2)C(N)=O)NC(=O)[C@H](CC(=O)O)NC(=O)CNC(=O)[C@H]([C@@H](C)CC)NC1=O)[C@@H](C)CC (stereo not given in full) (Ac-I[ξDap](Acryloyl)IAQELR[S5]IGD[S5]F-NH2; staple (E) 9-13); 175
3. C=CC(=O)NCC1NC(=O)[C@@H](NC(C)=O)CCCCNC(=O)C[C@@H](C(=O)N[C@@H](CCC(=O)O)C(=O)N[C@@H](CC(C)C)C(=O)N[C@@H](CCCNC(=N)N)C(=O)N[C@H]2CCCCNC(=O)C[C@@H](C(=O)N[C@@H](Cc3ccccc3)C(N)=O)NC(=O)[C@H](CC(=O)O)NC(=O)CNC(=O)[C@H]([C@@H](C)CC)NC2=O)NC(=O)[C@H](C)NC(=O)[C@H]([C@@H](C)CC)NC1=O (stereo not given in full) (Ac-K[ξDap](Acryloyl)IADELRKIGDDF-NH2; lactam 1-5, 9-13); 30.5
4. C=CC(=O)NCC1NC(=O)[C@@H](NC(C)=O)CCCCNC(=O)C[C@@H](C(=O)N[C@@H](CCC(=O)O)C(=O)N[C@@H](CC(C)C)C(=O)N[C@@H](CCCNC(=N)N)C(=O)N[C@@]2(C)CCC/C=C/CCC[C@@](C)(C(=O)N[C@@H](Cc3ccccc3)C(N)=O)NC(=O)[C@H](CC(=O)O)NC(=O)CNC(=O)[C@H]([C@@H](C)CC)NC2=O)NC(=O)[C@H](C)NC(=O)[C@H]([C@@H](C)CC)NC1=O (stereo not given in full) (Ac-K[ξDap](Acryloyl)IADELR[S5]IGD[S5]F-NH2; lactam 1-5; staple (E) 9-13); 46.7
5. C=CC(=O)NCC1NC(=O)[C@@](C)(NC(C)=O)CCC/C=C/CCC[C@@](C)(C(=O)N[C@@H](CCC(=O)O)C(=O)N[C@@H](CC(C)C)C(=O)N[C@@H](CCCNC(=N)N)C(=O)N[C@@]2(C)CCC/C=C/CCC[C@@](C)(C(=O)N[C@@H](Cc3ccccc3)C(N)=O)NC(=O)[C@H](CC(=O)O)NC(=O)CNC(=O)[C@H]([C@@H](C)CC)NC2=O)NC(=O)[C@H](C)NC(=O)[C@H]([C@@H](C)CC)NC1=O (stereo not given in full) (Ac-[S5][ξDap](Acryloyl)IA[S5]ELR[S5]IGD[S5]F-NH2; staple (E) 1-5, 9-13); 133

====

Target sequence: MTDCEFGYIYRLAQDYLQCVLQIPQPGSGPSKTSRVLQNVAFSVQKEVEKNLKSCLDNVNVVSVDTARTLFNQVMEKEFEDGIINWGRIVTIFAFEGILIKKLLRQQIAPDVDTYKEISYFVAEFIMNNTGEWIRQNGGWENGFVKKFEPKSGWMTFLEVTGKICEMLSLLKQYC
Positions of bridges follow the written chain, without caps; N, C: chain ends. Non-standard residues stand in square brackets, D forms with d. Residues, ends and D or L forms follow the SMILES beside them. ξ: configuration not given here. *: point of attachment. S5 = C=CCCC[C@](C)(N)C(=O)O; Acryloyl = C=CC(=O)*; ξDap = NCC(N)C(=O)O
Each entry below lists one item and its recorded IC50 value.
reported metric: IC50 (nM)

1) C=CC(=O)NCC1NC(=O)[C@@H](NC(C)=O)CCCCNC(=O)C[C@@H](C(=O)N[C@@H](CCC(=O)O)C(=O)N[C@@H](CC(C)C)C(=O)N[C@@H](CCCNC(=N)N)C(=O)N[C@H]2CCCCNC(=O)C[C@@H](C(=O)N[C@@H](Cc3ccccc3)C(N)=O)NC(=O)[C@H](CC(=O)O)NC(=O)CNC(=O)[C@H]([C@@H](C)CC)NC2=O)NC(=O)[C@H](C)NC(=O)[C@H]([C@@H](C)CC)NC1=O (stereo not given in full) (Ac-K[ξDap](Acryloyl)IADELRKIGDDF-NH2; lactam 1-5, 9-13); 6.5
2) C=CC(=O)NCC1NC(=O)[C@@H](NC(C)=O)CCCCNC(=O)C[C@@H](C(=O)N[C@@H](CCC(=O)O)C(=O)N[C@@H](CC(C)C)C(=O)N[C@@H](CCCNC(=N)N)C(=O)N[C@@]2(C)CCC/C=C/CCC[C@@](C)(C(=O)N[C@@H](Cc3ccccc3)C(N)=O)NC(=O)[C@H](CC(=O)O)NC(=O)CNC(=O)[C@H]([C@@H](C)CC)NC2=O)NC(=O)[C@H](C)NC(=O)[C@H]([C@@H](C)CC)NC1=O (stereo not given in full) (Ac-K[ξDap](Acryloyl)IADELR[S5]IGD[S5]F-NH2; lactam 1-5; staple (E) 9-13); 20.4
3) C=CC(=O)NCC1NC(=O)[C@@](C)(NC(C)=O)CCC/C=C/CCC[C@@](C)(C(=O)N[C@@H](CCC(=O)O)C(=O)N[C@@H](CC(C)C)C(=O)N[C@@H](CCCNC(=N)N)C(=O)N[C@H]2CCCCNC(=O)C[C@@H](C(=O)N[C@@H](Cc3ccccc3)C(N)=O)NC(=O)[C@H](CC(=O)O)NC(=O)CNC(=O)[C@H]([C@@H](C)CC)NC2=O)NC(=O)[C@H](C)NC(=O)[C@H]([C@@H](C)CC)NC1=O (stereo not given in full) (Ac-[S5][ξDap](Acryloyl)IA[S5]ELRKIGDDF-NH2; staple (E) 1-5; lactam 9-13); 6.6
4) C=CC(=O)NCC(NC(=O)[C@@H](NC(C)=O)[C@@H](C)CC)C(=O)N[C@H](C(=O)N[C@@H](C)C(=O)N[C@@H](CCC(N)=O)C(=O)N[C@@H](CCC(=O)O)C(=O)N[C@@H](CC(C)C)C(=O)N[C@@H](CCCNC(=N)N)C(=O)N[C@@]1(C)CCC/C=C/CCC[C@@](C)(C(=O)N[C@@H](Cc2ccccc2)C(N)=O)NC(=O)[C@H](CC(=O)O)NC(=O)CNC(=O)[C@H]([C@@H](C)CC)NC1=O)[C@@H](C)CC (stereo not given in full) (Ac-I[ξDap](Acryloyl)IAQELR[S5]IGD[S5]F-NH2; staple (E) 9-13); 54.6
5) C=CC(=O)NCC1NC(=O)[C@@](C)(NC(C)=O)CCC/C=C/CCC[C@@](C)(C(=O)N[C@@H](CCC(=O)O)C(=O)N[C@@H](CC(C)C)C(=O)N[C@@H](CCCNC(=N)N)C(=O)N[C@@]2(C)CCC/C=C/CCC[C@@](C)(C(=O)N[C@@H](Cc3ccccc3)C(N)=O)NC(=O)[C@H](CC(=O)O)NC(=O)CNC(=O)[C@H]([C@@H](C)CC)NC2=O)NC(=O)[C@H](C)NC(=O)[C@H]([C@@H](C)CC)NC1=O (stereo not given in full) (Ac-[S5][ξDap](Acryloyl)IA[S5]ELR[S5]IGD[S5]F-NH2; staple (E) 1-5, 9-13); 13.4
